The entries below come with measured EC50 values attached.
# system: human sphingosine-1-phosphate receptor 1 (S1P1) (Homo sapiens, UniProt P21453)
# assayDetails: Inhibition of cAMP production (HTRF cAMP HiRange), S1P1 CHO-K1 cells
# Assay type: cell-based
# testSettings: inhibition of cAMP production; potency; read-out: hS1P1 CAMP pEC50 (converted)
# Sequence (P21453 whole entry): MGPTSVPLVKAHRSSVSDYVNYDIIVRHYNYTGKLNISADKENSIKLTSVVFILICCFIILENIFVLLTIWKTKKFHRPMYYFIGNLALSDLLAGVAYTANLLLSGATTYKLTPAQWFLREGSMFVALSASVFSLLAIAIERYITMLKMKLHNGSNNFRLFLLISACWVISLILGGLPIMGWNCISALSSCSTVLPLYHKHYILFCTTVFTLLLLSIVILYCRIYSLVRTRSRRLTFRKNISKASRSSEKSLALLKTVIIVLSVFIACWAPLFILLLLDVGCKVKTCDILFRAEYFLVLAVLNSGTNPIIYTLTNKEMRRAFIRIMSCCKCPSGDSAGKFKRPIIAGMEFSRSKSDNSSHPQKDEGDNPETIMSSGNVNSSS

Worked examples, 8 molecules total:
INSERT INTO results (molecule, measurement) VALUES
  ('COc1ccccc1-c1nnc(-c2ccc3[nH]c(=O)oc3c2)o1 [Compound 349]', '< 316 nM'),
  ('CC(C)n1nnc2cc(-c3nsc(-c4ccccc4O)n3)ccc21 [Compound 112]', '< 316 nM'),
  ('CC(C)n1nnc2cc(-c3nc(-c4ccncc4)no3)ccc21 [Compound 244]', '< 316 nM'),
  ('Fc1cc(-c2noc(-c3ccc4c(c3)nnn4C3CCCC3)n2)ccc1C(F)(F)F [Compound 1]', '> 316 nM'),
  ('CC(C)n1nnc2cc(-c3ncc(-c4cccc(F)c4)s3)ccc21 [Compound 110]', '> 316 nM'),
  ('COc1cc(-c2noc(-c3ccc4c(c3)nnn4C3CCCC3)n2)ccn1 [Compound 281]', '> 316 nM'),
  ('COc1ccccc1-c1nnc(-c2ccc3c(c2)CCC(=O)N3)o1 [Compound 341]', '> 316 nM'),
  ('CC(F)(F)CNc1ccc(-c2nc(-c3ccc4c(c3)CCC(=O)N4)no2)cc1C#N [Compound 347]', '< 316 nM');

Shift focus to the following entry.
Req: Write down the reported EC50 of CC(C)Nc1ccc(-c2nnc(-c3ccc4[nH]cnc4c3)o2)cc1C#N [Compound 356] , test system: human sphingosine-1-phosphate receptor 1 (S1P1) (Homo sapiens, UniProt P21453).
Resp: < 316 nM

###

# system: human sphingosine-1-phosphate receptor 1 (S1P1) (Homo sapiens, UniProt P21453)
# assayDetails: β-Arrestin2 recruitment assay (PathHunter), S1P1 CHO-K1 cells
# Format: cell-based
# testSettings: CHO-K1, β-arrestin2 recruitment; efficacy normalized to maximum efficacy of fingolimod; read-out: hS1P1 B-arrestin2 SPAN
# Sequence (P21453 whole entry): as above
# Sequence (P32121 whole entry partner): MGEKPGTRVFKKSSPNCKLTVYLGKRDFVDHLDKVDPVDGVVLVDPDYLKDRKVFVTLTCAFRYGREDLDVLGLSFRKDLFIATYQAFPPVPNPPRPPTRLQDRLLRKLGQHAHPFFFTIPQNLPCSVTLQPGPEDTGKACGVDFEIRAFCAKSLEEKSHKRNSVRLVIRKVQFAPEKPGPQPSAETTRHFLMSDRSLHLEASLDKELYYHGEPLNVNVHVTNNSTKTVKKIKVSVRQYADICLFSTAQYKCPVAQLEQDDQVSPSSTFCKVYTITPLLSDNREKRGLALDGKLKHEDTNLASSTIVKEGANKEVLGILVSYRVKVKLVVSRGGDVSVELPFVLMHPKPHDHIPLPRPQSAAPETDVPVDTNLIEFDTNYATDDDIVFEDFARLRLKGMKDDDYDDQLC
measuredAttribute: Emax

Worked examples, 6 molecules total:
INSERT INTO measurements (molecule, measuredattribute, measurement) VALUES
  ('Cc1ccccc1-c1nc(-c2ccc3c(c2)nnn3C(C)C)no1', 'Emax', '> 75%'),
  ('Cc1ccc(-c2nc(-c3ccc4c(c3)nnn4C(C)C)no2)c(C)c1', 'Emax', '> 75%'),
  ('CSc1cccc(-c2nc(-c3ccc4c(c3)nnn4C3CCCC3)no2)c1', 'Emax', '< 75%'),
  ('COc1cnc(-c2nc(-c3ccc4c(c3)nnn4C(C)C)no2)cn1', 'Emax', '< 75%'),
  ('Cc1ccccc1-c1noc(-c2ccc3c(c2)CCC(=O)N3C)n1', 'Emax', '< 75%'),
  ('Cc1cncc(-c2nc(-c3ccc4c(c3)nnn4C(C)C)no2)c1', 'Emax', '< 75%');

Req: # get_value(readout='Emax', item= `COc1ccccc1-c1noc(-c2ccc3c(cnn3C(C)C)c2)n1` )
Resp: > 75%

Req: # get_value(readout='Emax', item= `C=CCNc1ccc(-c2nc(-c3ccc4[nH]c(=O)oc4c3)no2)cc1C#N` )
Resp: > 75%

Req: # get_value(readout='Emax', item= Cc1ccccc1C(C)c1noc(-c2ccc3c(c2)nnn3CC(C)C)n1 (stereo not drawn) )
Resp: < 75%

Req: # get_value(readout='Emax', item= `Cc1ccsc1-c1noc(-c2ccc3c(c2)nnn3C(C)C)n1` )
Resp: > 75%

Req: # get_value(readout='Emax', item= `Cc1ccccc1-c1noc(-c2ccc3c(c2)nnn3C2CC2)n1` )
Resp: > 75%

Req: # get_value(readout='Emax', item= `Cc1cncc(-c2nc(-c3ccc4c(c3)nnn4C(C)C)no2)n1` )
Resp: < 75%

Req: # get_value(readout='Emax', item= `CCCn1nnc2cc(-c3nc(-c4ccc(C(F)(F)F)c(F)c4)no3)ccc21` )
Resp: < 75%

Req: # get_value(readout='Emax', item= `FC(F)(F)c1cccc(-c2nc(-c3ccc4c(c3)nnn4C3CCCC3)no2)c1` )
Resp: < 75%

Req: # get_value(readout='Emax', item= `CC(C)n1nnc2cc(-c3ncc(-c4ccccc4F)s3)ccc21` )
Resp: < 75%

Req: # get_value(readout='Emax', item= `FC(F)(F)c1cccc(-c2noc(-c3ccc4c(c3)nnn4C3CCCC3)n2)c1` )
Resp: < 75%

Req: # get_value(readout='Emax', item= `CCC1(CC)CC(=O)c2cc(-c3nc(-c4ccccc4OC)no3)ccc2O1` )
Resp: > 75%

Req: # get_value(readout='Emax', item= `COc1ccc(-c2nsc(-c3ccc4[nH]ccc4c3)n2)cc1` )
Resp: < 75%

###

# system: human sphingosine-1-phosphate receptor 1 (S1P1) (Homo sapiens)
# assayDetails: Inhibition of cAMP production (HTRF cAMP HiRange), S1P1 CHO-K1 cells
# Type: cell-based
# testSettings: CHO-K1; efficacy normalized to maximum efficacy of fingolimod; read-out: hS1P1 CAMP SPAN
# Protocol: Stable clonal Chinese hamster ovary K1 (CHO-K1) cells co-expressing EA-β-arrestin2 and the human sphingosine-1-phosphate receptor 1 (NM_001400, S1P1) with a C-terminal Prolink™ tag were purchased from DiscoverX corporation (Cat #: 93-0207C2). […] Agonist-promoted G-protein responses were determined by measuring changes in intracellular cAMP using the HTRF® cAMP HiRange kit (CisBio, Cat #: 62AM6PEJ) based on time-resolved fluorescence resonance energy transfer (TR-FRET) technology. […]
measuredAttribute: Emax

INSERT INTO assay_data (smiles, measurement) VALUES
  ('CCC1(CC)CC(=O)c2cc(-c3nc(-c4cncc(S(N)(=O)=O)c4)no3)ccc2O1', '> 75%'),
  ('CCC1(CC)CC(=O)c2cc(-c3nc(-c4ccc5nonc5c4)no3)ccc2O1', '< 75%');

Shift focus to the following entry.
Req: # get_value(readout='Emax', item= `CCC1(CC)CC(=O)c2cc(-c3nc(-c4cncnc4)no3)ccc2O1` )
Resp: < 75%

###

The entries below come with measured EC50 values attached.
# system: human sphingosine-1-phosphate receptor 1 (S1P1) (Homo sapiens, UniProt P21453)
# assayDetails: Inhibition of cAMP production (HTRF cAMP HiRange), S1P1 CHO-K1 cells
# Format: cell-based
# testSettings: inhibition of cAMP production; potency; read-out: hS1P1 CAMP pEC50 (converted)

INSERT INTO measurements (smiles, system, measurement) VALUES
  ('Cc1ccc(-c2noc(-c3ccc4c(c3)nnn4C3CCCCC3)n2)cc1', 'human sphingosine-1-phosphate receptor 1 (S1P1) (Homo sapiens, UniProt P21453)', '> 316 nM'),
  ('CC(C)n1ccc2cc(-c3nc(-c4ccccc4Cl)no3)ccc21', 'human sphingosine-1-phosphate receptor 1 (S1P1) (Homo sapiens, UniProt P21453)', '< 316 nM'),
  ('Cc1ccsc1-c1noc(-c2ccc3c(c2)nnn3C(C)C)n1', 'human sphingosine-1-phosphate receptor 1 (S1P1) (Homo sapiens, UniProt P21453)', '< 316 nM'),
  ('Cc1cncc(-c2nc(-c3ccc4c(c3)nnn4C(C)C)no2)n1', 'human sphingosine-1-phosphate receptor 1 (S1P1) (Homo sapiens, UniProt P21453)', '> 316 nM'),
  ('CCC1(CC)CC(=O)c2cc(-c3nc(-c4ccncc4O)no3)ccc2O1', 'human sphingosine-1-phosphate receptor 1 (S1P1) (Homo sapiens, UniProt P21453)', '> 316 nM');

Req: # get_value(readout='EC50', item= `c1ccc(-c2noc(-c3ccc4c(c3)nnn4C3CCCCC3)n2)cc1` )
Resp: > 316 nM

Req: # get_value(readout='EC50', item= `CC(C)n1nnc2cc(-c3nc4c(o3)Cc3ccccc3-4)ccc21` )
Resp: < 316 nM

Req: # get_value(readout='EC50', item= `CCC1(CC)CC(=O)c2cc(-c3nc(-c4cccc(O)c4)no3)ccc2O1` )
Resp: < 316 nM

Req: # get_value(readout='EC50', item= `Cc1ccccc1-c1cnc(-c2ccc3c(c2)nnn3C(C)C)s1` )
Resp: > 316 nM

###

The entries below come with measured Emax values attached.
# system: UniProtKB P21453
# assayDetails: β-Arrestin2 recruitment assay (PathHunter), S1P1 CHO-K1 cells
# Format: cell-based
# testSettings: CHO-K1; efficacy normalized to maximum efficacy of fingolimod; read-out: hS1P1 B-arrestin2 SPAN

Worked examples, 6 compounds total:
INSERT INTO measurements (compound, measurement) VALUES
  ('CCC1(CC)CC(=O)c2cc(-c3nc(-c4cncc(C(N)=O)c4)no3)ccc2O1', '< 75%'),
  ('CC(C)Oc1ccc(-c2ncc(-c3ccc4c(c3)nnn4C(C)C)cn2)cc1C#N', '> 75%'),
  ('CC(C)Nc1ccc(-c2ncc(-c3ccc4c(c3)nnn4C(C)C)cn2)cc1C#N', '> 75%'),
  ('O=C1c2cc(-c3nc(-c4ccncc4)no3)ccc2OC(CO)(CO)C1Br (centres unmarked)', '< 75%'),
  ('CC(C)(CO)Cn1nnc2cc(-c3noc(-c4ccncc4C(F)(F)F)n3)ccc21', '< 75%'),
  ('CC(C)n1ccc2nc(-c3nc(-c4ccccc4Br)cs3)ccc21', '< 75%');

Req: # get_value(readout='Emax', item= `O=C1CC(CO)(CO)Oc2ccc(-c3nc(-c4ccncc4)no3)cc21` )
Resp: > 75%

Req: # get_value(readout='Emax', item= `COCC1(COC)CC(=O)c2cc(-c3nc(-c4ccncc4)no3)ccc2O1` )
Resp: < 75%

Req: # get_value(readout='Emax', item= `CCC1(CC)CC(=O)c2cc(-c3noc(-c4ccc(NC(C)C)c(C#N)c4)n3)ccc2O1` )
Resp: < 75%

Req: # get_value(readout='Emax', item= `N#Cc1cc(-c2nnc(-c3ccc4c(c3)CCC(=O)N4)o2)ccc1NCCF` )
Resp: < 75%

Req: # get_value(readout='Emax', item= `CC(C)n1ccc2cc(-c3noc(-c4cccc(F)c4)n3)ccc21` )
Resp: < 75%

Req: # get_value(readout='Emax', item= `CC(C)n1ccc2cc(-c3noc(-c4ccc(F)cc4)n3)ccc21` )
Resp: < 75%

Req: # get_value(readout='Emax', item= `CCC1(CC)CC(=O)c2cc(-c3nc(-c4ccc5c(c4)CC(=O)N5)no3)ccc2O1` )
Resp: > 75%
